Data origin, for the record: ChEMBL document CHEMBL1126916

- system_name: Phosphodiesterase 4A (Sus scrofa, UniProt O77823)
- assay_procedure: Inhibition of cAMP specific phosphodiesterase from porcine aorta
reported_endpoint: pIC50
Lab note: report pIC50 as minus log10 of the concentration in molar units, number only.

Q) // pIC50 lookup, key: CCCOc1ccccc1-c1nc2nn[nH]c2c(=O)[nH]1 [ZAPRINAST]
A) 4.10

----------
- system_name: UniProt:Q9XSW7
- Sequence (Q9XSW7 whole entry): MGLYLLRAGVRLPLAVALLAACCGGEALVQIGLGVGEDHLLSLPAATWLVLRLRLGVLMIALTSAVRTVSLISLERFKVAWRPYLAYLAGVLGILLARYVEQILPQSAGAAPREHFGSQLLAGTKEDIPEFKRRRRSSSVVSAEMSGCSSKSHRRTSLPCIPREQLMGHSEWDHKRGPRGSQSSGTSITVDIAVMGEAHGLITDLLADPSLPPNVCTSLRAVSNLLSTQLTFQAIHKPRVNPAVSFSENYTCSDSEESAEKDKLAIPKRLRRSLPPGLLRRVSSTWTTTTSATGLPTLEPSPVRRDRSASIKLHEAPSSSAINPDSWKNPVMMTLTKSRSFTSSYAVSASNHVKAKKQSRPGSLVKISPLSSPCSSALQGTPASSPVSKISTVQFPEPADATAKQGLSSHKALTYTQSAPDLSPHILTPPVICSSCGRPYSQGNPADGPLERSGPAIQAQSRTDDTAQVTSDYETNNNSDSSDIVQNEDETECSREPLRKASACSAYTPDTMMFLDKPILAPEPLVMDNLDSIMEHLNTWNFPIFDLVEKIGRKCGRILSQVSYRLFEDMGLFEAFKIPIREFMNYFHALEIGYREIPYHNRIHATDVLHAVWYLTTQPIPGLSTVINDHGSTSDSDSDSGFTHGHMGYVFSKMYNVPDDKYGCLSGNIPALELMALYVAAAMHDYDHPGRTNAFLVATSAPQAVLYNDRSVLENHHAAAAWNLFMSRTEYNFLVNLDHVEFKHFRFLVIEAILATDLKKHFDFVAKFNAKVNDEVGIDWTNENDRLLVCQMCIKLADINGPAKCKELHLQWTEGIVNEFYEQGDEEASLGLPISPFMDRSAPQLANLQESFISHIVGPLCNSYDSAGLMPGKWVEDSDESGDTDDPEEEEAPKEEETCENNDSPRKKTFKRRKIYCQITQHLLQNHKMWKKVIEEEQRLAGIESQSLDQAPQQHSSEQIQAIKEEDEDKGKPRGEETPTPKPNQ
- assay_procedure: Inhibition of cGMP-inhibited phosphodiesterase from porcine coronary arteries
reported_endpoint: pIC50
Keep it numeric: pIC50 is minus log10 of the concentration in mol/L.

Q) // pIC50 lookup, key: `COc1ccc(Cc2nccc3cc(OC)c(OC)cc23)cc1OC`
A) 6.21

----------
- system_name: UniProtKB O77823
- Sequence (O77823 whole entry): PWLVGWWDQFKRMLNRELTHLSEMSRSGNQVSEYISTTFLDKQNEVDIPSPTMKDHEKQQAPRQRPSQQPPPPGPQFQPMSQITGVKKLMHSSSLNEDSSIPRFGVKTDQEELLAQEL
- assay_procedure: Inhibition of cAMP specific phosphodiesterase from porcine aorta
IC50 reference
Write it as a number; the unit µM goes unstated.

compound	system_name	IC50 / µM
COc1ccc(Cc2nccc3cc(OC)c(OC)cc23)cc1OC [PAPAVERINE]	UniProtKB O77823	1.7

Proceeding to the next compound to report its IC50.
Q) Request the reported IC50 associated with `Clc1cccc(Nc2nnc(-c3ccccc3)c3ccccc23)c1`
A) 37.2
